test system: 953936-095-R-J2-PDC spheroids with HUVEC/MSC, viability; assay: Anticancer human tumor 953936-095-R-J2-PDC patient-derived cervical squamous cell carcinoma cell line growth inhibition [PI3K]; details: curve of first compound; second compound 1 µM
Each entry below lists one item and its recorded IC50 value.

# compound CCCS(=O)(=O)Nc1ccc(F)c(C(=O)c2c[nH]c3ncc(-c4ccc(Cl)cc4)cc23)c1F + CC(Nc1ncnc2nc[nH]c12)c1cc2cccc(Cl)c2c(=O)n1-c1ccccc1 ; its IC50 = 5.28 µM

Measured IC50 of Cn1ncc(Cl)c1-c1cc(C(=O)NC(CN)Cc2cccc(F)c2)sc1Cl (stereo unspecified) + CC(Nc1ccc2c(c1)OCCn1cc(N3C(=O)OCC3C(F)F)nc1-2)C(N)=O : < 0.0316 µM

Query Cn1nccc1Nc1nccc(-c2ccn(C(CO)c3ccc(Cl)c(F)c3)c(=O)c2)n1 (stereo unspecified) + COc1c(OCCCN2CCOCC2)ccc2c3n(c(=NC(=O)c4cnc(N)nc4)nc12)CCN3 yields IC50 of < 0.0316 µM

Record C#Cc1c(F)ccc2cc(O)cc(-c3ncc4c(N5CC6CCC(C5)N6)nc(OCC56CCCN5CC(F)C6)nc4c3F)c12 (stereo unspecified) + COc1c(OCCCN2CCOCC2)ccc2c3n(c(=NC(=O)c4cnc(N)nc4)nc12)CCN3 , field IC50: < 0.0316 µM

---
Given item CC(C)NCC(C(=O)N1CCN(c2ncnc3c2C(C)CC3O)CC1)c1ccc(Cl)cc1 (stereo unspecified) + Cc1nc(NC(=O)N2CCCC2C(N)=O)sc1-c1ccnc(C(C)(C)C(F)(F)F)c1 , the value recorded as its IC50 is < 0.0316 µM

Just so you know, measured IC50 for CC1(C)CCC(Nc2ncc(C(F)(F)F)c(-c3c[nH]c4c(P(C)(C)=O)c(C#N)ccc34)n2)CN1 (stereo unspecified) + CC(Nc1ncnc2nc[nH]c12)c1cc2cccc(Cl)c2c(=O)n1-c1ccccc1 came out at 1.78 µM

The compound listed as CCN1CCN(Cc2ccc(Nc3ncc(F)c(-c4cc(F)c5nc(C)n(C(C)C)c5c4)n3)nc2)CC1 + COc1c(OCCCN2CCOCC2)ccc2c3n(c(=NC(=O)c4cnc(N)nc4)nc12)CCN3 shows IC50 equal to < 0.00316 µM

====

system: 953936-095-R-J2-PDC spheroids with HUVEC/MSC, viability; experiment: Anticancer human tumor 953936-095-R-J2-PDC cell line growth inhibition [PI3K]; details: curve of first compound; second compound 0.1 µM;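 note: spheroids exposed to compounds for seven days before read-out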
result-type: IC50

Field IC50 (entry CCN1CCN(Cc2ccc(Nc3ncc(F)c(-c4cc(F)c5nc(C)n(C(C)C)c5c4)n3)nc2)CC1 + CC(Nc1ccc2c(c1)OCCn1cc(N3C(=O)OCC3C(F)F)nc1-2)C(N)=O ) reads 64.4 nM

====

system: 953936-095-R-J2-PDC spheroids with HUVEC/MSC, viability; experiment: Anticancer human tumor 953936-095-R-J2-PDC cell line growth inhibition [PI3K]; conditions: second compound 1 µM; first compound 0.316 µM; active = viability on the fitted dose curve at most 10% of control; inactive = the rest;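 note: spheroids exposed to compounds for seven days before read-out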
Answer with one of the outcomes 1.0 = active, 0.0 = inactive

Consider the following illustrative entries.
Please state the recorded outcome for this compound: CCCS(=O)(=O)Nc1ccc(F)c(C(=O)c2c[nH]c3ncc(-c4ccc(Cl)cc4)cc23)c1F + COc1c(OCCCN2CCOCC2)ccc2c3n(c(=NC(=O)c4cnc(N)nc4)nc12)CCN3
1.0

For this compound, state the assay outcome: CC1(C)CCC(CN2CCN(c3ccc(C(=O)NS(=O)(=O)c4ccc(NCC5CCOCC5)c([N+](=O)[O-])c4)c(Oc4cnc5[nH]ccc5c4)c3)CC2)=C(c2ccc(Cl)cc2)C1 + COc1c(OCCCN2CCOCC2)ccc2c3n(c(=NC(=O)c4cnc(N)nc4)nc12)CCN3
1.0

What outcome does the record of this test show for CC(Cn1ccc(-c2ccc(C#N)c(Cl)c2)n1)NC(=O)c1cc(C(C)O)[nH]n1 (stereo not given) + COc1c(OCCCN2CCOCC2)ccc2c3n(c(=NC(=O)c4cnc(N)nc4)nc12)CCN3 ?
1.0

Could you check what this test reported for CC(Cn1ccc(-c2ccc(C#N)c(Cl)c2)n1)NC(=O)c1cc(C(C)O)[nH]n1 (stereo not given) + Cc1nc(NC(=O)N2CCCC2C(N)=O)sc1-c1ccnc(C(C)(C)C(F)(F)F)c1 ?
0.0

In this assay, the call recorded for CC(Cn1ccc(-c2ccc(C#N)c(Cl)c2)n1)NC(=O)c1cc(C(C)O)[nH]n1 (stereo not given) + CC(Nc1ccc2c(c1)OCCn1cc(N3C(=O)OCC3C(F)F)nc1-2)C(N)=O was what?
0.0

I'd appreciate the recorded outcome for C#Cc1c(F)ccc2cc(O)cc(-c3ncc4c(N5CC6CCC(C5)N6)nc(OCC56CCCN5CC(F)C6)nc4c3F)c12 (stereo not given) + CC(Nc1ncnc2nc[nH]c12)c1cc2cccc(Cl)c2c(=O)n1-c1ccccc1 from this test.
0.0

New cases:
Tell me the recorded outcome of this test for C=CC(=O)N1CCN(c2nc(=O)n(-c3c(C)ccnc3C(C)C)c3nc(-c4c(O)cccc4F)c(F)cc23)C(C)C1 (stereo not given) + CC(Nc1ncnc2nc[nH]c12)c1cc2cccc(Cl)c2c(=O)n1-c1ccccc1 .
0.0

Identify the outcome logged in this assay for the compound shown: C#Cc1c(F)ccc2cc(O)cc(-c3ncc4c(N5CC6CCC(C5)N6)nc(OCC56CCCN5CC(F)C6)nc4c3F)c12 (stereo not given) + CC(Nc1ccc2c(c1)OCCn1cc(N3C(=O)OCC3C(F)F)nc1-2)C(N)=O
0.0

Returns: the outcome recorded for C#Cc1c(F)ccc2cc(O)cc(-c3ncc4c(N5CC6CCC(C5)N6)nc(OCC56CCCN5CC(F)C6)nc4c3F)c12 (stereo not given) + Cc1nc(NC(=O)N2CCCC2C(N)=O)sc1-c1ccnc(C(C)(C)C(F)(F)F)c1 in this assay.
0.0

Per the records of this test, what outcome belongs to CC1(C)CCC(CN2CCN(c3ccc(C(=O)NS(=O)(=O)c4ccc(NCC5CCOCC5)c([N+](=O)[O-])c4)c(Oc4cnc5[nH]ccc5c4)c3)CC2)=C(c2ccc(Cl)cc2)C1 + CC(Nc1ccc2c(c1)OCCn1cc(N3C(=O)OCC3C(F)F)nc1-2)C(N)=O ?
0.0
